- target-under-test: MBP fused to the Tudor domain (residues 1484–1603) of 53BP1 (human, UniProt Q12888 1484-1603)
- Sequence (Q12888 1484-1603): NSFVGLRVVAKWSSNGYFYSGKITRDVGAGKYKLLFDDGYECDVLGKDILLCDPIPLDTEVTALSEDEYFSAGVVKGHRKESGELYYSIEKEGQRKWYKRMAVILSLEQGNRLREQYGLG
- assay-notes: pull-down
Non-standard residues stand in square brackets, D forms with d. No end group written: not given here. *: point of attachment. Biotin = O=C1N[C@H]2[C@H](CS[C@H]2CCCCC(=O)*)N1; Lys(Me2) = CN(C)CCCC[C@H](N)C(=O)O
quantity-kind: IC50

Q: Tell me IC50 reported for {Biotin-Mini‑PEG}-YGKGGAKRHR[Lys(Me2)]VLRD [biotin-labeled peptide derived from histone H4K20me2]
Result: 100 to 300 µM
